measured.on: GPCR GPR40 (Rattus norvegicus)
Sequence (Q8K3T4 whole entry): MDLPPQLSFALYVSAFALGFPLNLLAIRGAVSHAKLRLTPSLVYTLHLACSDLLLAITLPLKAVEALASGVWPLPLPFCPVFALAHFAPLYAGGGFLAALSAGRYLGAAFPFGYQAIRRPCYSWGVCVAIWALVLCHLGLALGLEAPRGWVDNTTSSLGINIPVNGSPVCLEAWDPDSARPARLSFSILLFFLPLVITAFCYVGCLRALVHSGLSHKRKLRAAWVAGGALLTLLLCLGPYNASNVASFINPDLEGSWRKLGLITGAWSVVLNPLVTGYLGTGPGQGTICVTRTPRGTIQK
measurement.description: In vitro FLIPR assay with recombinant cells which express the GPCR GPR40
details: recombinant HEK293 cells expressing rat GPR40; agonist-induced change in intracellular Ca2+ (Fluo-4, FLIPR); 100% = 10 μM linoleic acid
Catalogue of log10 EC50 readings, one per entry.
readout.kind: log10 EC50 (log10 of the value in nM)

                                   molecule  readout_kind  quantitative_result
0  CC#CC(CC(=O)O)c1ccc(OCCC(C)Oc2ccc(C(F)(F)F)cc2)cc1 (single isomer, unassigned) [Example 23]    log10 EC50                 2.32
1  CC#CC(CC(=O)O)c1ccc(OCC(C)(C)COc2ccc(C(F)(F)F)cc2)cc1 (centres unmarked)    log10 EC50                 2.90
2  CC#CC(CC(=O)O)c1ccc(OCC(C)COc2cc(C(C)C)ccc2C)cc1 (centres unmarked)    log10 EC50                 3.51
3  CC#CC(CC(=O)O)c1ccc(OCC(CO)COc2ccc(C#N)c(Cl)c2)cc1 (centres unmarked)    log10 EC50                 2.18
4  CC#CC(CC(=O)O)c1ccc(OCCOc2ccccc2C(F)(F)F)cc1 (centres unmarked)    log10 EC50                 1.70
5  CC#CC(CC(=O)O)c1ccc(OCC[C@H](C)Oc2ccc(C(F)(F)F)cc2Cl)cc1 (some centres unmarked)    log10 EC50                 2.89
6  CC#CC(CC(=O)O)c1ccc(OC(C)CCOc2cccc(C(C)(C)C)c2)cc1 (centres unmarked)    log10 EC50                 3.21
7  CC#CC(CC(=O)O)c1ccc(OCC(C)COc2cccc(C(C)(C)C)c2)cc1 (centres unmarked)    log10 EC50                 3.04
